# Test system: Endogenous Huntingtin Protein
# test.description: Endogenous Huntingtin Protein Assay (ELISA-based MSD electrochemiluminescence)
# Type: cell-based
# run.conditions: Table 1
metric.name: IC50

Recorded IC50, per entry:
Cn1cc2cc(-c3ccc4nc(C5(F)CCNCC5)sc4c3)ccc2n1 : 1000 to 3000 nM
Cc1cn2nc(-c3cc(F)c4nc(N5CCNC6(CC6)C5)sc4c3)cc(C)c2n1 : 100 to 500 nM
Cc1cn2nc(-c3cc(F)c4nc(N5CCNCC5)sc4c3)cc(C)c2n1 : ≤ 100 nM

## Task Give reported IC50 value for CN1CC[C@H]2CN(c3nc4nnc(-c5ccc(-c6cn[nH]c6)cc5O)cc4s3)[C@H]2C1
## Result ≤ 100 nM

## Task Give reported IC50 value for CN(c1nc2cnc(-c3cc(F)c4nn(C)cc4c3)nc2s1)C1CC(C)(C)NC(C)(C)C1
## Result ≤ 100 nM

## Task Give reported IC50 value for CNC1CC(N(C)c2nc3nnc(-c4ccc(-c5cn[nH]c5)cc4O)cc3s2)C1 (stereo not shown)
## Result 100 to 500 nM

## Task Give reported IC50 value for Cc1csc2nc(-c3cc4sc(N(C)C5CC(C)(C)NC(C)(C)C5)nc4cn3)cn12
## Result 500 to 1000 nM

## Task Give reported IC50 value for Cc1cn2cc(-c3ccc4nc(N(C)C5CC(C)(C)NC(C)(C)C5)sc4n3)ccc2n1
## Result 500 to 1000 nM

====

Quick reference for IC50 among some compounds
# Test system: Endogenous Huntingtin Protein
# test.description: Endogenous Huntingtin Protein Assay (ELISA-based MSD electrochemiluminescence)
# Type: cell-based
# run.conditions: Table 1

Cc1cn2cc(-c3cc4sc(N(C)C5CC6CCCC(C5)N6)nc4cn3)cc(C#N)c2n1 (stereo not shown) [Compound 251] : ≤ 100 nM
Cc1cn2cc(-c3cc4sc(N(C)C5CC(C)(C)NC(C)(C)C5)nc4cn3)cc2c(C)n1 [Compound 297] : ≤ 100 nM
Cn1cc2cc(-c3cc(Cl)c4nc(C5=CCNCC5)sc4c3)cc(F)c2n1 [Compound 153] : 1000 to 3000 nM

The record that follows has no IC50 shown yet.
## Task Give reported IC50 value for Cc1cc(-c2cc3sc(C4CCNCC4)nc3cn2)cc2cn(C)nc12 [Compound 59]
## Result 100 to 500 nM

====

Quick reference for pIC50 among some compounds
# Test system: Endogenous Huntingtin Protein
# test.description: Endogenous Huntingtin Protein Assay (ELISA-based MSD electrochemiluminescence)
# Assay type: cell-based
# run.conditions: Table 1
pIC50: −log10 of the molar value.

CN1CCC2(CCN(c3nc4nnc(-c5ccc(-c6cn[nH]c6)cc5O)cc4s3)C2)C1 (stereo not shown) : 5.52 to 6.00

## Task Give reported pIC50 value for CN1CC[C@@H]2[C@@H](CCN2c2nc3nnc(-c4ccc(-c5cn[nH]c5)cc4O)cc3s2)C1
## Result 5.52 to 6.00

## Task Give reported pIC50 value for CN(c1nc2cnc(-c3cc(C#N)c4nn(C)cc4c3)cc2s1)C1CC2(C)CCC(C)(C1)N2 (stereo not shown)
## Result ≥ 7.00

## Task Give reported pIC50 value for Cc1cc(-c2ncc3nc(N(C)C4CC(C)(C)NC(C)(C)C4)sc3c2F)cc2cn(C)nc12
## Result 6.30 to 7.00
